# ASSAY INFO: Half life in Beagle dog at 1 mg/kg, iv and po by LC-MS/MS analysis
# Format: ADME, organism-based, Canis lupus familiaris
# Set-up: dose 1 mg/kg, route oral
# RUN CONDITIONS: in vivo
VALUE KIND: half-life (h)
State the answer as a number, implicitly in h.

input: Tell me the measured half-life of `Cc1noc(C)c1CCC1CCN(S(=O)(=O)C[C@](C)(C[C@H](C)c2ncc(F)cn2)N(O)C=O)CC1` , please.
output: 11.3

* * *

# ASSAY INFO: Half life in Han Wistar rat at 2 mg/kg, iv and po by LC-MS/MS analysis
# Type: ADME, organism-based
# Design: dose 2 mg/kg, route oral
# RUN CONDITIONS: in vivo
VALUE KIND: half-life (h)
Answer format: numeric, h implied, no suffix.

input: Item under review: `C[C@@H](C[C@@](C)(CS(=O)(=O)N1CCN(CCc2ccc(Cl)cc2Cl)CC1)N(O)C=O)c1ncc(F)cn1` . Reported half-life?
output: 5.6

input: // lookup half-life for `C[C@@H](C[C@@](C)(CS(=O)(=O)N1CCC(CCc2ccc(Cl)cc2Cl)CC1)N(O)C=O)c1ncc(F)cn1`
output: 14.9

input: // half-life lookup, key: `C[C@@H](C[C@@](C)(CS(=O)(=O)N1CCC(OCc2ccc(Cl)cc2Cl)CC1)N(O)C=O)c1ncc(F)cn1`
output: 0.3

input: // half-life lookup, key: `Cc1noc(C)c1CCC1CCN(S(=O)(=O)C[C@](C)(C[C@H](C)c2ncc(F)cn2)N(O)C=O)CC1`
output: 11

* * *

I'd be grateful if you could share measured IC50 for these entries.
# TEST TARGET: Matrix metalloproteinase-14 (Homo sapiens)
# ASSAY INFO: Inhibition of recombinant human MMP14 assessed as substrate cleavage by measuring increase in fluorescence after 16 hrs

input: Would you kindly share the measured IC50 for `Cc1cnc(C)c(CCC2CCN(S(=O)(=O)C[C@](C)(C[C@H](C)c3ncc(F)cn3)N(O)C=O)CC2)c1` ?
output: > 8000 nM

input: Which measured IC50 value corresponds to `C[C@@H](C[C@@](C)(CS(=O)(=O)N1CCC(CCc2ccc(F)cc2Br)CC1)N(O)C=O)c1ncc(F)cn1` ?
output: 390 nM

input: Quick one: IC50 of `Cc1nsc(C)c1CCC1CCN(S(=O)(=O)C[C@](C)(C[C@H](C)c2ncc(F)cn2)N(O)C=O)CC1` ?
output: 2600 nM

input: Sample `C[C@@H](C[C@@H](CS(=O)(=O)N1CCN(c2ccc(F)cc2)CC1)N(O)C=O)c1ncc(F)cn1` — what was its IC50?
output: 11 nM

input: Which IC50 is reported for this compound? `Cc1noc(C)c1CCC1CCN(S(=O)(=O)C[C@](C)(C[C@H](C)c2ncc(F)cn2)N(O)C=O)CC1`
output: > 8900 nM

input: Reported IC50, compound `C[C@@H](C[C@@](C)(CS(=O)(=O)N1CCC(CCc2ncc(C(F)(F)F)cc2Cl)CC1)N(O)C=O)c1ncc(F)cn1` : ____
output: > 18000 nM

* * *

# ASSAY INFO: Oral bioavailability in mouse by LC-MS/MS analysis
# Assay type: ADME, organism-based
# RUN CONDITIONS: in vivo
VALUE KIND: bioavailability (%)
Value expressed in %; do not type the unit.

input: # query: bioavailability of entry `Cc1noc(C)c1CCC1CCN(S(=O)(=O)C[C@](C)(C[C@H](C)c2ncc(F)cn2)N(O)C=O)CC1`
output: 34
